Values from patent US10966994B2

test_system: TPβ (Homo sapiens)
Construct: expressed in transfected cells; host or cells: HEK 293 (HEK.TPβ, isolate EM #8)
assay_remarks: 8-iso-PGF2α-mediated calcium mobilization in HEK.TPβ cells
Assay type: cell-based
assay_conditions: 10 μM 8-iso-PGF2α, estimated IC50, read-out: IC50 values for inhibition of 8-iso-PGF2α-mediated [Ca2+]i mobilization, TPβ
fulfilled if IC50 is below 0.02 µM. not fulfilled if not; exact matches included in not fulfilled.

# example entries with known answers
molecule | class_assignment
COc1ccc(-c2cccc(Oc3ccc([N+](=O)[O-])cc3S(=O)(=O)NC(=O)NC(C)(C)C)c2)cc1 [TP20, reference compound] | fulfilled
CN(C)C(=O)c1ccc(-c2cccc(Oc3ccc(C#N)cc3S(=O)(=O)NC(=O)NC(C)(C)C)c2)cc1 [NTP48] | fulfilled
COc1ccc(-c2cccc(Oc3ccc(C#N)cc3S(=O)(=O)NC(=O)NC(C)(C)C)c2)cc1 [NTP4, reference compound] | not fulfilled
CC(C)(C)NC(=O)NS(=O)(=O)c1cc(C#N)ccc1Oc1cccc(-c2ccc(OC(F)(F)F)cc2)c1 [NTP43] | fulfilled

I wonder whether CC(C)(C)NC(=O)NS(=O)(=O)c1cc(C#N)ccc1Oc1cccc(-c2ccc(OC(F)F)cc2)c1 [NTP42] has IC50 below 0.02 µM. Can you tell?
fulfilled

---

test_system: IP receptor (Homo sapiens)
Sequence (P43119 whole entry): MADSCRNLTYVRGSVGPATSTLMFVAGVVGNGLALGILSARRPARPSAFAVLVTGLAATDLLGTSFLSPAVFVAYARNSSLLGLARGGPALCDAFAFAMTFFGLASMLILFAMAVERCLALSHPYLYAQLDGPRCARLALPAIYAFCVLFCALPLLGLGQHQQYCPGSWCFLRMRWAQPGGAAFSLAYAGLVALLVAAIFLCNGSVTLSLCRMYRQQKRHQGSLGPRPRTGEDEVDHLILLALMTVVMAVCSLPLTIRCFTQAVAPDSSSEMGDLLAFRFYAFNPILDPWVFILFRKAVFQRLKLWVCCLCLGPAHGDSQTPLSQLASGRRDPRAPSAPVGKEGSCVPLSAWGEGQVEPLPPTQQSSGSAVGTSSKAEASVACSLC
assay_remarks: Specificity testing, IP receptor signaling
Assay type: cell-based
quantity_measured: effect on the IP receptor

query_smiles | test_system | quantity_measured | value_observed
CC(C)(C)NC(=O)NS(=O)(=O)c1cc(C#N)ccc1Oc1cccc(-c2ccc(OC(F)F)cc2)c1 | IP receptor (Homo sapiens) | effect on the IP receptor | no effect
CN(C)C(=O)c1ccc(-c2cccc(Oc3ccc(C#N)cc3S(=O)(=O)NC(=O)NC(C)(C)C)c2)cc1 | IP receptor (Homo sapiens) | effect on the IP receptor | no effect

---

test_system: EP3 receptor (Homo sapiens, UniProt P43115)
Sequence (P43115 whole entry): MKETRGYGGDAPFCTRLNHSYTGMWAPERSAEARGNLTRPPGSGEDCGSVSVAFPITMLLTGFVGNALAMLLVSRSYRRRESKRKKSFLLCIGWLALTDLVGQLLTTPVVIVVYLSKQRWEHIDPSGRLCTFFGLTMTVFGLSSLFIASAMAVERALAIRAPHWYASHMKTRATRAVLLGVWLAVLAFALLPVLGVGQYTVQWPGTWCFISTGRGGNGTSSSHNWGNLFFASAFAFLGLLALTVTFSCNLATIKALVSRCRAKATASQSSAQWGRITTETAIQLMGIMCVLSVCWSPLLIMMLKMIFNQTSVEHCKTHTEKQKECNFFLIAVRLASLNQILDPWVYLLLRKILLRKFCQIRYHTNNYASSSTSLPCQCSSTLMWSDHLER
assay_remarks: Specificity testing, EP3 receptor signaling
Format: cell-based

query_smiles | test_system | effect on the EP3 receptor
CN(C)C(=O)c1ccc(-c2cccc(Oc3ccc(C#N)cc3S(=O)(=O)NC(=O)NC(C)(C)C)c2)cc1 | EP3 receptor (Homo sapiens, UniProt P43115) | no effect
CC(C)(C)NC(=O)NS(=O)(=O)c1cc(C#N)ccc1Oc1cccc(-c2ccc(OC(F)F)cc2)c1 | EP3 receptor (Homo sapiens, UniProt P43115) | no effect

---

test_system: DP1 receptor (Homo sapiens, UniProt Q13258)
Sequence (Q13258 whole entry): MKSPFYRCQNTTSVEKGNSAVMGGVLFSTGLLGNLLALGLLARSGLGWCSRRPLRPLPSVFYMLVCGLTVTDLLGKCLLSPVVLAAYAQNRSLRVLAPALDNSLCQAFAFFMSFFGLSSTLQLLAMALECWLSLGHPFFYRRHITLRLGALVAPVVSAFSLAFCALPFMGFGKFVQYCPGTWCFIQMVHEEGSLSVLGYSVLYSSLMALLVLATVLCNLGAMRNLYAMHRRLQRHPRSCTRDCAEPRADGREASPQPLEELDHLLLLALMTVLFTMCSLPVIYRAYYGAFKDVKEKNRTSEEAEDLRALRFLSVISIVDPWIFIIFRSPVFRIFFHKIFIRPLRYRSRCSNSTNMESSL
assay_remarks: Specificity testing, DP1 receptor signaling
Assay type: cell-based
quantity_measured: effect on the DP1 receptor (DP-mediated signaling)

query_smiles | test_system | value_observed
CN(C)C(=O)c1ccc(-c2cccc(Oc3ccc(C#N)cc3S(=O)(=O)NC(=O)NC(C)(C)C)c2)cc1 | DP1 receptor (Homo sapiens, UniProt Q13258) | no effect
CC(C)(C)NC(=O)NS(=O)(=O)c1cc(C#N)ccc1Oc1cccc(-c2ccc(OC(F)F)cc2)c1 | DP1 receptor (Homo sapiens, UniProt Q13258) | no effect

---

test_system: EP1 receptor (Homo sapiens, UniProt P34995)
Sequence (P34995 whole entry): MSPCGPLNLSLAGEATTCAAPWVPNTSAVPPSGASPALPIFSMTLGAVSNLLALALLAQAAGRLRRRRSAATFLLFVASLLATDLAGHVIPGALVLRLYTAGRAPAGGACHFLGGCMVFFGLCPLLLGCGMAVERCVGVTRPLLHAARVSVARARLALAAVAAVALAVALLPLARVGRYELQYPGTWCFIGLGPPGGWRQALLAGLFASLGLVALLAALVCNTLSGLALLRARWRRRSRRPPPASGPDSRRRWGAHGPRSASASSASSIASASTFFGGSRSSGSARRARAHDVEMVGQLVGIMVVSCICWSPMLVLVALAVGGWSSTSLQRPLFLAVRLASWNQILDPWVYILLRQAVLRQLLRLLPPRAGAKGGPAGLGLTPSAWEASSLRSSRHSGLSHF
assay_remarks: Specificity testing, EP1 receptor signaling
Type: cell-based

query_smiles | effect on the EP1 receptor
CN(C)C(=O)c1ccc(-c2cccc(Oc3ccc(C#N)cc3S(=O)(=O)NC(=O)NC(C)(C)C)c2)cc1 | no effect
CC(C)(C)NC(=O)NS(=O)(=O)c1cc(C#N)ccc1Oc1cccc(-c2ccc(OC(F)F)cc2)c1 | no effect

---

test_system: EP4 receptor (Homo sapiens)
Sequence (P35408 whole entry): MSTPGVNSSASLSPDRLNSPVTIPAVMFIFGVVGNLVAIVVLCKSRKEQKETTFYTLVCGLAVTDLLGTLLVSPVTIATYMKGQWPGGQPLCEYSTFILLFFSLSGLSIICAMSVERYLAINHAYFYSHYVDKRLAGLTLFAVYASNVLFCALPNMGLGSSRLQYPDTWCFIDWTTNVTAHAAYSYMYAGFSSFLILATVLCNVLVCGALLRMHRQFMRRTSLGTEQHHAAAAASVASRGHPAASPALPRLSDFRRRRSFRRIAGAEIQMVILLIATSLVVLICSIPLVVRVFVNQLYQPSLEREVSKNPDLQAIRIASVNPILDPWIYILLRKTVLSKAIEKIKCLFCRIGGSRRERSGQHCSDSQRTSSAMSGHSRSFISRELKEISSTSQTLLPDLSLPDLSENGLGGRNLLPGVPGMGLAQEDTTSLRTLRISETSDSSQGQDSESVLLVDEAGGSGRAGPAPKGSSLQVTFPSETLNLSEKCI
assay_remarks: Specificity testing, EP4 receptor signaling
Assay type: cell-based
quantity_measured: effect on the EP4 receptor

query_smiles | value_observed
CN(C)C(=O)c1ccc(-c2cccc(Oc3ccc(C#N)cc3S(=O)(=O)NC(=O)NC(C)(C)C)c2)cc1 | no effect
CC(C)(C)NC(=O)NS(=O)(=O)c1cc(C#N)ccc1Oc1cccc(-c2ccc(OC(F)F)cc2)c1 | no effect

---

test_system: EP2 receptor (Homo sapiens)
Sequence (P43116 whole entry): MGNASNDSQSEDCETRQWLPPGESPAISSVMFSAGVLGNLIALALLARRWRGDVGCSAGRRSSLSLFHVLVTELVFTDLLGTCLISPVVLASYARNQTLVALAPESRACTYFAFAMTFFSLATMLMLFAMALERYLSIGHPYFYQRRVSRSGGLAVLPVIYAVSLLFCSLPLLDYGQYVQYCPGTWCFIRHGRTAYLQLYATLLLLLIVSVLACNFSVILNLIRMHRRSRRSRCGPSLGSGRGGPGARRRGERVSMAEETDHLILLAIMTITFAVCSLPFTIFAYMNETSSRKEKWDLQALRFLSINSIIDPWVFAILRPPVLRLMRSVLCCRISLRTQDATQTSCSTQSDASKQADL
assay_remarks: Specificity testing, EP2 receptor signaling
Format: cell-based
quantity_measured: effect on the EP2 receptor

query_smiles | test_system | value_observed
CN(C)C(=O)c1ccc(-c2cccc(Oc3ccc(C#N)cc3S(=O)(=O)NC(=O)NC(C)(C)C)c2)cc1 | EP2 receptor (Homo sapiens) | no effect
CC(C)(C)NC(=O)NS(=O)(=O)c1cc(C#N)ccc1Oc1cccc(-c2ccc(OC(F)F)cc2)c1 | EP2 receptor (Homo sapiens) | no effect

---

Here, each record is paired with measured pIC50 data.
test_system: TP (Homo sapiens, UniProt P21731)
Construct: CEREP
assay_remarks: U44069-mediated [Ca2+]i mobilization (CEREP)
Type: cell-based
assay_conditions: CEREP assay, agonist U44069; read-out: IC50 Value for Inhibition of U44069-Mediated [Ca2+]i Mobilization
Note on pIC50: it is the negative log10 of concentration, concentration in mol/L.

molecule | test_system | quantity_measured | value_observed
CC(C)(C)NC(=O)NS(=O)(=O)c1cc(C#N)ccc1Oc1cccc(-c2ccc(OC(F)F)cc2)c1 [NTP42] | TP (Homo sapiens, UniProt P21731) | pIC50 | 8.48

Kindly consider the entry below.
Recorded pIC50 of CN(C)C(=O)c1ccc(-c2cccc(Oc3ccc(C#N)cc3S(=O)(=O)NC(=O)NC(C)(C)C)c2)cc1 [NTP48] , please.
8.11

---

test_system: TPα (Homo sapiens)
Construct: expressed in transfected cells; host or cells: HEK 293 (HEK.TPα, isolate HR #4)
Sequence (P21731 1-343): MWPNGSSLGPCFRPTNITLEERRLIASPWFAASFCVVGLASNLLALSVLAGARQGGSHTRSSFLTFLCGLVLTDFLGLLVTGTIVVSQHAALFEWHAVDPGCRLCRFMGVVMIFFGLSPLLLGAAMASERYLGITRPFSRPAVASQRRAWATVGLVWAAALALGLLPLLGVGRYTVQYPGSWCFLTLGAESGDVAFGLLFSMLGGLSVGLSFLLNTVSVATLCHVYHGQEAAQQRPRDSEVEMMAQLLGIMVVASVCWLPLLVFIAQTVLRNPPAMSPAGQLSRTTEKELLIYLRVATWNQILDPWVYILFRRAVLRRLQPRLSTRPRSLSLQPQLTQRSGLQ
assay_remarks: U46619-mediated calcium mobilization in HEK.TPα cells
Type: cell-based
assay_conditions: 1 μM U46619, estimated IC50, mean ± S.E.M., read-out: IC50 values for Inhibition of U46619-Mediated [Ca2+]i Mobilisation, TPα
quantity_measured: IC50 (µM)
Give the number; µM is assumed, so skip it.

// known answers, use as guide
compound | scale_unit | value_observed
CC(C)(C)NC(=O)NS(=O)(=O)c1cc(C#N)ccc1Oc1cccc(-c2ccc(OC(F)F)cc2)c1 | µM | 0.0562
CC(C)(C)NC(=O)NS(=O)(=O)c1cc(C#N)ccc1Oc1cccc(-c2ccc(OC(F)(F)F)cc2)c1 | µM | 0.105
CN(C)C(=O)c1ccc(-c2cccc(Oc3ccc(C#N)cc3S(=O)(=O)NC(=O)NC(C)(C)C)c2)cc1 | µM | 0.0901

Switching to the query record.
Query the reported IC50 for TPα (Homo sapiens); item: COc1ccc(-c2cccc(Oc3ccc([N+](=O)[O-])cc3S(=O)(=O)NC(=O)NC(C)(C)C)c2)cc1 [TP20, reference compound]
0.125

---

test_system: UniProt:P43088
Sequence (P43088 whole entry): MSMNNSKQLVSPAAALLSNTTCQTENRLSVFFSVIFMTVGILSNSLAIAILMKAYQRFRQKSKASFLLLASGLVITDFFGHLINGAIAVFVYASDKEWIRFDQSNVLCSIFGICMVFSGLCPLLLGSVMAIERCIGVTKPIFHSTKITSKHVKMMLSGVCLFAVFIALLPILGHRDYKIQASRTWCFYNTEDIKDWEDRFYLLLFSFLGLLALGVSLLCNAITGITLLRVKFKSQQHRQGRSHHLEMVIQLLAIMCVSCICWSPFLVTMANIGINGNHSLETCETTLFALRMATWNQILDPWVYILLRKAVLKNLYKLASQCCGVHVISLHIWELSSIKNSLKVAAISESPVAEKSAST
assay_remarks: Specificity testing, FP1 receptor signaling
Type: cell-based
quantity_measured: effect on the FP1 receptor (FP-mediated signaling)

query_smiles | value_observed
CN(C)C(=O)c1ccc(-c2cccc(Oc3ccc(C#N)cc3S(=O)(=O)NC(=O)NC(C)(C)C)c2)cc1 | no effect
CC(C)(C)NC(=O)NS(=O)(=O)c1cc(C#N)ccc1Oc1cccc(-c2ccc(OC(F)F)cc2)c1 | no effect

---

Entries and their pIC50
test_system: TPα (Homo sapiens)
Construct: expressed in transfected cells; host or cells: HEK 293 (HEK.TPα, isolate HR #4)
Sequence (P21731 1-343): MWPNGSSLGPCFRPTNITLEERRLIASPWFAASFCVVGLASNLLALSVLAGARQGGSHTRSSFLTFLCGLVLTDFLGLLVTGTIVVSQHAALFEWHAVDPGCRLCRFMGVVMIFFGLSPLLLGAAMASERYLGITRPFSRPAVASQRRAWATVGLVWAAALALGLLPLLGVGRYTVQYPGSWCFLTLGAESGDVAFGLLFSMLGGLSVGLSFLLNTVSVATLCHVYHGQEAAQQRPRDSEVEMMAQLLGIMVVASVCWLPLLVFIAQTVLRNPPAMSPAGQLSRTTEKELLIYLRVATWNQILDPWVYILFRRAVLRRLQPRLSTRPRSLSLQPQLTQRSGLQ
assay_remarks: 8-iso-PGF2α-mediated calcium mobilization in HEK.TPα cells
Format: cell-based
assay_conditions: 10 μM 8-iso-PGF2α, estimated IC50, read-out: IC50 values for inhibition of 8-iso-PGF2α-mediated [Ca2+]i mobilization, TPα
Scale for pIC50: -log10 of concentration given in mol/L; no unit attached.

molecule | pIC50
COc1ccc(-c2cccc(Oc3ccc([N+](=O)[O-])cc3S(=O)(=O)NC(=O)NC(C)(C)C)c2)cc1 [TP20, reference compound] | 7.33

For the molecule CC(C)(C)NC(=O)NS(=O)(=O)c1cc(C#N)ccc1Oc1cccc(-c2ccc(OC(F)F)cc2)c1 , what pIC50 is on record?
7.89

Consider the molecule COc1ccc(-c2cccc(Oc3ccc(C#N)cc3S(=O)(=O)NC(=O)NC(C)(C)C)c2)cc1 [NTP4, reference compound] and give its measured pIC50.
6.99

If you can, please state the reported pIC50 value of CC(C)(C)NC(=O)NS(=O)(=O)c1cc(C#N)ccc1Oc1cccc(-c2ccc(OC(F)(F)F)cc2)c1 .
7.51

Bench note: what pIC50 did CN(C)C(=O)c1ccc(-c2cccc(Oc3ccc(C#N)cc3S(=O)(=O)NC(=O)NC(C)(C)C)c2)cc1 show?
7.53
